- Experiment: APR_HepG2_MicrotubuleCSK_24hr: Apredica 24-hour HepG2 Assay for Microtubule CSK Stabilty (AID 2282909)
- Condition: HepG2 microtubule cytoskeleton imaging, actives raise or lower the signal
Activity calls are given as the source filed them. Rule for the calls: active = hit-call score of the fitted dose curve at least 0.9, where 1 is the maximum; inactive = score below 0.9.
Classes used: 1 (yes) (active), 0 (no) (inactive)

[[record]]
compound = "O=c1[nH]c(=O)[nH]c(=O)[nH]1"
qualitative_label = "0 (no)"

[[record]]
compound = "O=C(O)C(F)(F)C(F)(F)C(F)(F)C(F)(F)C(F)(F)C(F)(F)C(F)(F)C(F)(F)C(F)(F)C(F)(F)F"
qualitative_label = "1 (yes)"

[[record]]
compound = "Oc1cccc2cccnc12"
qualitative_label = "0 (no)"

[[record]]
compound = "CC(C)(C)CC(C)(C)c1ccc(O)cc1"
qualitative_label = "0 (no)"

[[record]]
compound = "Cn1sc(Cl)cc1=O"
qualitative_label = "0 (no)"

[[record]]
compound = "C[C@]12CCC(=O)C[C@@H]1CC[C@@H]1[C@@H]2CC[C@]2(C)[C@@H](O)CC[C@@H]12"
qualitative_label = "0 (no)"

[[record]]
compound = "CCN1CCC2(CC1)COc1cc3c(cc12)N(C(=O)c1ccc(-c2ccc(-c4nnc(C)o4)cc2C)cc1)CC3"
qualitative_label = "0 (no)"

[[record]]
compound = "C=CC(=O)OCCCCCC(C)C"
qualitative_label = "0 (no)"

[[record]]
compound = "CC(C)(C)c1cc(O)ccc1O"
qualitative_label = "0 (no)"

[[record]]
compound = "C=C(C)C(=O)[O][Sn]([CH2]CCC)([CH2]CCC)[CH2]CCC"
qualitative_label = "0 (no)"

[[record]]
compound = "O=C1C2(Cl)C3(Cl)C4(Cl)C(Cl)(Cl)C5(Cl)C3(Cl)C1(Cl)C5(Cl)C24Cl (stereo unspecified)"
qualitative_label = "0 (no)"


* * *

- Experiment: BSK_BT_Bcell_Proliferation: Viability Assessment in the BioMAP Diversity Plus: BT Assay for B cell Proliferation (AID 2284227)
- Condition: primary human B cells with PBMC
Activity calls are given as the source filed them. The calls were made as follows: active = hit-call score of the fitted dose curve at least 0.9, where 1 is the maximum; inactive = score below 0.9.
Labels: True for active, False for inactive

[[record]]
smiles_structure = "COC(=O)c1sccc1S(=O)(=O)NC(=O)Nc1nc(C)nc(OC)n1"
qualitative_label = "False"

[[record]]
smiles_structure = "O=C(O)C(F)(F)C(F)(F)C(F)(F)C(F)(F)C(F)(F)C(F)(F)F"
qualitative_label = "False"

[[record]]
smiles_structure = "Nc1ncc([N+](=O)[O-])s1"
qualitative_label = "False"

[[record]]
smiles_structure = "CCOC(=O)/C=C(C)/C=C/C[C@@H](C)CCCC(C)C"
qualitative_label = "True"

[[record]]
smiles_structure = "COP(=S)(OC)Oc1ccc(Sc2ccc(OP(=S)(OC)OC)cc2)cc1"
qualitative_label = "False"

[[record]]
smiles_structure = "O=C(O)CCC(F)(C(F)(F)F)C(F)(F)F"
qualitative_label = "False"

[[record]]
smiles_structure = "O=C(OC1CCCCC1)c1ccccc1C(=O)OC1CCCCC1"
qualitative_label = "True"

[[record]]
smiles_structure = "CC1(C)Cc2cccc(O)c2O1"
qualitative_label = "False"

[[record]]
smiles_structure = "CC(C)c1ccc(CO)cc1"
qualitative_label = "False"


* * *

- Test system: SRD5A2 (gene 6716)
- Experiment: CCTE_Deisenroth_5AR_NBTE_ratio: CCTE's 5alpha-reductase NanoBRET Target Engagement Assay - Ratio, Deisenroth Lab (AID 2284322)
- Condition: actives raise or lower the signal
Activity calls are given as the source filed them. The calls were made as follows: active = hit-call score of the fitted dose curve at least 0.9, where 1 is the maximum; inactive = score below 0.9.
Labels: active, inactive

[[record]]
smiles_structure = "CCN1CCC2(CC1)COc1cc3c(cc12)N(C(=O)c1ccc(-c2ccc(-c4nnc(C)o4)cc2C)cc1)CC3"
qualitative_label = "active"

[[record]]
smiles_structure = "N#CN=C(N)N"
qualitative_label = "inactive"

[[record]]
smiles_structure = "C=C(C)C(=O)[O][Sn]([CH2]CCC)([CH2]CCC)[CH2]CCC"
qualitative_label = "active"

[[record]]
smiles_structure = "O=[N+]([O-])c1ccc(O)c([N+](=O)[O-])c1"
qualitative_label = "active"

[[record]]
smiles_structure = "O=C(O)C(F)(F)C(F)(F)C(F)(F)C(F)(F)C(F)(F)C(F)(F)C(F)(F)C(F)(F)C(F)(F)C(F)(F)F"
qualitative_label = "inactive"

[[record]]
smiles_structure = "CC(=O)[O][Hg][c]1ccccc1"
qualitative_label = "active"

[[record]]
smiles_structure = "O=C(OC1CCCCC1)c1ccccc1C(=O)OC1CCCCC1"
qualitative_label = "inactive"

[[record]]
smiles_structure = "C[C@@H]1C[C@@H]([C@H](O)CC2CC(=O)NC(=O)C2)C(=O)[C@@H](C)C1"
qualitative_label = "active"

[[record]]
smiles_structure = "O=C1C(Cl)=C(Cl)C(=O)c2ccccc21"
qualitative_label = "inactive"

[[record]]
smiles_structure = "c1cc[c]([Hg][c]2ccccc2)cc1"
qualitative_label = "inactive"


* * *

- Read-out: matrix metalloproteinase-3 (MMP3), MMP3 (gene 4314)
- Experiment: LTEA_HepaRG_MMP3: Life Technologies and Expression Analysis (LTEA) Assay for matrix metalloproteinase-3 (MMP3) using HepaRG (AID 2283519)
- Condition: mRNA level, 48 h; actives raise or lower the signal
Calls of active or inactive are those of the source. Rule for the calls: active = hit-call score of the fitted dose curve at least 0.9, where 1 is the maximum; inactive = score below 0.9.
Outcomes: Y = active, N = inactive

[[record]]
compound = "Oc1cccc2cccnc12"
qualitative_label = "N"

[[record]]
compound = "CC12CC1(C)C(=O)N(c1cc(Cl)cc(Cl)c1)C2=O (configuration not stated)"
qualitative_label = "N"

[[record]]
compound = "O=C(O)C(Cl)(Cl)Cl"
qualitative_label = "N"

[[record]]
compound = "O=C(Nc1ccc2[nH]ccc2c1)c1cc2cc(F)ccc2n1Cc1cccc(F)c1"
qualitative_label = "N"

[[record]]
compound = "CCCCCCCCc1ccc(O)cc1"
qualitative_label = "N"

[[record]]
compound = "C=C(C)C(=O)[O][Sn]([CH2]CCC)([CH2]CCC)[CH2]CCC"
qualitative_label = "N"

[[record]]
compound = "CCN1CCC2(CC1)COc1cc3c(cc12)N(C(=O)c1ccc(-c2ccc(-c4nnc(C)o4)cc2C)cc1)CC3"
qualitative_label = "Y"

[[record]]
compound = "NC(=O)O"
qualitative_label = "N"

[[record]]
compound = "CC(C)(C)CC(C)(C)c1ccc(O)cc1"
qualitative_label = "N"

[[record]]
compound = "CC(=O)[O][Hg][c]1ccccc1"
qualitative_label = "Y"

[[record]]
compound = "O=C(O)C(F)(F)C(F)(F)C(F)(F)C(F)(F)C(F)(F)C(F)(F)F"
qualitative_label = "N"

[[record]]
compound = "CCC(=O)C(CC(C)N(C)C)(c1ccccc1)c1ccccc1 (configuration not stated)"
qualitative_label = "N"

[[record]]
compound = "O=C(O)C(F)(F)C(F)(F)C(F)(F)C(F)(F)C(F)(F)C(F)(F)C(F)(F)C(F)(F)C(F)(F)C(F)(F)F"
qualitative_label = "N"

[[record]]
compound = "C=CC(=O)OCCCCCC(C)C"
qualitative_label = "N"

[[record]]
compound = "CC(C)(c1ccccc1)c1ccc(O)c(C(C)(C)c2ccccc2)c1"
qualitative_label = "N"

[[record]]
compound = "O=C1C2(Cl)C3(Cl)C4(Cl)C(Cl)(Cl)C5(Cl)C3(Cl)C1(Cl)C5(Cl)C24Cl (configuration not stated)"
qualitative_label = "N"

[[record]]
compound = "ClC1(Cl)C2(Cl)C3(Cl)C4(Cl)C(Cl)(Cl)C5(Cl)C3(Cl)C1(Cl)C5(Cl)C24Cl (configuration not stated)"
qualitative_label = "N"


* * *

- Read-out: ATP-citrate lyase (ACLY), ACLY (gene 47)
- Experiment: LTEA_HepaRG_ACLY: Life Technologies and Expression Analysis (LTEA) Assay for ATP-citrate lyase (ACLY) using HepaRG (AID 2283466)
- Condition: mRNA level, 48 h; actives raise or lower the signal
Active and inactive are the calls of the source. The calls were made as follows: active = hit-call score of the fitted dose curve at least 0.9, where 1 is the maximum; inactive = score below 0.9.
Possible outcomes: 1 for active, -1 for inactive

[[record]]
compound = "CC(C)(c1ccccc1)c1ccc(O)c(C(C)(C)c2ccccc2)c1"
qualitative_label = -1

[[record]]
compound = "CN(C)N=O"
qualitative_label = -1

[[record]]
compound = "CC(C)(C)CC(C)(C)c1ccc(O)cc1"
qualitative_label = -1

[[record]]
compound = "C[C@]12CCC(=O)C[C@@H]1CC[C@@H]1[C@@H]2CC[C@]2(C)[C@@H](O)CC[C@@H]12"
qualitative_label = -1

[[record]]
compound = "CC(C)(C)c1cc(O)ccc1O"
qualitative_label = -1

[[record]]
compound = "O=C(Nc1ccc2[nH]ccc2c1)c1cc2cc(F)ccc2n1Cc1cccc(F)c1"
qualitative_label = -1

[[record]]
compound = "CC(C)(OO)c1ccccc1"
qualitative_label = -1

[[record]]
compound = "CCC(=O)C(CC(C)N(C)C)(c1ccccc1)c1ccccc1 (centres undefined)"
qualitative_label = -1

[[record]]
compound = "C=CC(=O)OCCCCCC(C)C"
qualitative_label = -1

[[record]]
compound = "CCN1CCC2(CC1)COc1cc3c(cc12)N(C(=O)c1ccc(-c2ccc(-c4nnc(C)o4)cc2C)cc1)CC3"
qualitative_label = 1

[[record]]
compound = "CCCCCCCCc1ccc(O)cc1"
qualitative_label = -1

[[record]]
compound = "C=C(C)C(=O)[O][Sn]([CH2]CCC)([CH2]CCC)[CH2]CCC"
qualitative_label = -1

[[record]]
compound = "Cn1sc(Cl)cc1=O"
qualitative_label = -1

[[record]]
compound = "O=c1[nH]c(=O)[nH]c(=O)[nH]1"
qualitative_label = -1

